target: HDAC1 enzyme (Homo sapiens, UniProt Q13547); construct: prepared by transducing full length HDAC1 and HDAC6 genes into Sf-9 insect cells; GST; purchased SignalChem; host or cells: Sf-9 insect cells; assay: HDAC1 enzyme inhibitory assay (HDAC-Glo I/II Assay kit); format: biochemical; details: 1 μM test compound; read-out: HDAC1 inhibitory rate (%) (1 μM)
Sequence (Q13547 whole entry): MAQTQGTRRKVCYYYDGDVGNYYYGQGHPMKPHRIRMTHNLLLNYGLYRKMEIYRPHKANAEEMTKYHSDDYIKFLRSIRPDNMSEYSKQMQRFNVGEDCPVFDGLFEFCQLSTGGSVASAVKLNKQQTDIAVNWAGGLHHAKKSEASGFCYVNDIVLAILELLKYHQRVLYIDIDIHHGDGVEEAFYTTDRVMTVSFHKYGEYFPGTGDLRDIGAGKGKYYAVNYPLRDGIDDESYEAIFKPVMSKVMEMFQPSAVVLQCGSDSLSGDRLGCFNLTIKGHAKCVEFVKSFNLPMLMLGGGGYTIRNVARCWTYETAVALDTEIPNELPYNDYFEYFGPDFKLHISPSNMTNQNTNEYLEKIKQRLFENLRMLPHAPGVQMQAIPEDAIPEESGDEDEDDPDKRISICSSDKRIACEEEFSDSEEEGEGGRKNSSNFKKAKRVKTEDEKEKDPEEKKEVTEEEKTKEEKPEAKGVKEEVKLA
quantity-measured: inhibition at 1 µM (%)

1) O=C(NC[C@H]1COCCN1C(=O)N1CCC[C@H]1C(F)(F)F)c1ccc(-c2noc(C(F)(F)F)n2)cc1; 2
2) O=C(NCC1CCCCN1C(=O)c1ccccc1)c1ccc(-c2noc(C(F)(F)F)n2)cc1 (stereo not drawn); 25

(1) Cc1ncsc1C(=O)N1CCOC[C@@H]1CNC(=O)c1ccc(-c2noc(C(F)(F)F)n2)cc1
(2) Cn1nc2ccccc2c1C(=O)N1CCOCC1CNC(=O)c1ccc(-c2noc(C(F)(F)F)n2)s1 (stereo not drawn)
*Q* Returns: the label, 1 or 2 , whose recorded inhibition at 1 µM is the lower number. Please identify the chosen entry by its label.
*A* 1
(1: 16%, 2: 36%)

(A) O=C(NC[C@H]1COCCN1C(=O)N1CCCOCC1)c1ccc(-c2noc(C(F)(F)F)n2)cc1
(B) Cc1noc(C)c1C(=O)N1CCOC[C@@H]1CNC(=O)c1ccc(-c2noc(C(F)(F)F)n2)cc1
*Q* Please indicate which item has the smaller measured inhibition at 1 µM: A versus B Answer by quoting the chosen item's label.
*A* A

(I) Cc1oncc1C(=O)N1CCOCC1CNC(=O)c1ccc(-c2noc(C(F)(F)F)n2)s1 (stereo not drawn)
(II) Cc1nnsc1C(=O)N1CCOC[C@@H]1CNC(=O)c1ccc(-c2noc(C(F)(F)F)n2)cc1
*Q* Select one: I or II . Criterion: greater recorded inhibition at 1 µM. Use the label to indicate which entry you chose.
*A* II

(P) O=C(NC[C@@H]1COCCN1C(=O)c1csnn1)c1ccc(-c2noc(C(F)(F)F)n2)cc1
(Q) Cc1nonc1C(=O)N1CCOC[C@@H]1CNC(=O)c1ccc(-c2noc(C(F)(F)F)n2)cc1
(R) O=C(NCCO)c1cccc(C(=O)N2CCOC[C@@H]2CNC(=O)c2ccc(-c3noc(C(F)(F)F)n3)cc2)c1
(S) N#C[C@H]1CCCN1C(=O)N1CCOC[C@@H]1CNC(=O)c1ccc(-c2noc(C(F)(F)F)n2)cc1
*Q* Highest inhibition at 1 µM first, then in falling order down to the smallest. Answer with the labels in sequence, matching the requested order.
*A* Q, P, R, S

Provenance of the data: patent US10081624B2
